All values here come from paper PMC11768344.

Test system: porcine liver esterase
testDescription: liver esterase stability study of ROP-ST
Type: in vitro ADME
studyConditions: pig, porcine liver esterase solution; 5 U/mL porcine liver esterase, pH 8.0, 25 °C
experimentalReadout: half-life at 100 µM
# do not omit the unit; it follows the number

**Q:** # get_value(readout= half-life at 100 µM, system= porcine liver esterase) for CCCCCCCCCCCCCCCCCC(=O)OCN(C(=O)C1CCCCN1CCC)c1c(C)cccc1C (stereo not shown) [ROP-ST, ropivacaine stearoxil]
**A:** 6.78 h

---

testDescription: saturated solubility (shake, 37 °C, 72 h, HPLC-UV)
Type: physicochemical
studyConditions: PBS buffer pH 7.4, pH 7.4, PBS pH 7.4, 37 °C; read-out: SPBS 7.4, the solubility in PBS 7.4 solution
experimentalReadout: solubility at 72 h

**Q:** So what's the measured solubility at 72 h for this one? CCCN1CCCC[C@H]1C(=O)Nc1c(C)cccc1C [ROP, Ropivacaine]
**A:** ~1000 µM
